System: 598228-144-R-J1-PDC complex spheroid viability;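 note: spheroids exposed to the agents for one week before reading; percent of vehicle DMSO control viability so 100% = untreated growth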
assay-procedure: Anticancer human tumor 598228-144-R-J1-PDC patient-derived serous endometrial adenocarcinoma cell line growth inhibition [GQUAD]
condition-description: second compound 3.16 µM; first compound 0.0316 µM; hits give low values
viability, T/C reference
measured-quantity: viability, T/C (%)

* COc1cc(C2c3cc4c(cc3C(OC3OC5COC(C)OC5C(O)C3O)C3COC(=O)C23)OCO4)cc(OC)c1O (centres undefined) + Cc1cnc(CNC(=O)c2c(=O)c3ccc(N4CCCN(C)CC4)nc3n3c2sc2ccccc23)cn1 | 64.6
* C#Cc1c(F)ccc2cc(O)cc(-c3ncc4c(N5CC6CCC(C5)N6)nc(OCC56CCCN5CC(F)C6)nc4c3F)c12 (centres undefined) + Cc1[nH]c2ccc(F)cc2c1-c1nc2c3cccnc3c3ncccc3c2[nH]1 | 37
* COc1cccc2c1C(=O)c1c(O)c3c(c(O)c1C2=O)CC(O)(C(=O)CO)CC3OC1CC(N)C(O)C(C)O1 (centres undefined) + CN(C)c1ccc(Nc2c3ccc(NC(=O)CCN4CCCC4)cc3nc3cc(NC(=O)CCN4CCCC4)ccc23)cc1 | 81.6
* COc1cc(C2c3cc4c(cc3C(OC3OC5COC(C)OC5C(O)C3O)C3COC(=O)C23)OCO4)cc(OC)c1O (centres undefined) + Cc1[nH]c2ccc(F)cc2c1-c1nc2c3cccnc3c3ncccc3c2[nH]1 | 43.2
* CCCS(=O)(=O)Nc1ccc(F)c(C(=O)c2c[nH]c3ncc(-c4ccc(Cl)cc4)cc23)c1F + CN(C)c1ccc(Nc2c3ccc(NC(=O)CCN4CCCC4)cc3nc3cc(NC(=O)CCN4CCCC4)ccc23)cc1 | 94.1
* Cc1cccc(N(C)C(=O)C2C(O)CCN2c2nc(C)cc(C(F)(F)F)c2C#N)c1 (centres undefined) + Cc1[nH]c2ccc(F)cc2c1-c1nc2c3cccnc3c3ncccc3c2[nH]1 | 40.8
* COc1ncnc(C2CC2)c1-c1ncc2cnn(Cc3ccc(-c4nc(C(F)(F)F)cn4C(C)C)cc3)c2n1 + CN(C)c1ccc(Nc2c3ccc(NC(=O)CCN4CCCC4)cc3nc3cc(NC(=O)CCN4CCCC4)ccc23)cc1 | 89.8
* COc1cccc2c1C(=O)c1c(O)c3c(c(O)c1C2=O)CC(O)(C(=O)CO)CC3OC1CC(N)C(O)C(C)O1 (centres undefined) + Cc1[nH]c2ccc(F)cc2c1-c1nc2c3cccnc3c3ncccc3c2[nH]1 | 38.9
* COc1cc(C2c3cc4c(cc3C(OC3OC5COC(C)OC5C(O)C3O)C3COC(=O)C23)OCO4)cc(OC)c1O (centres undefined) + CN(C)c1ccc(Nc2c3ccc(NC(=O)CCN4CCCC4)cc3nc3cc(NC(=O)CCN4CCCC4)ccc23)cc1 | 95
* CC(C)(O)C1CCC(Nc2ccc3ncc(-c4cccc(C(F)(F)F)c4)n3n2)CC1 (centres undefined) + Cc1[nH]c2ccc(F)cc2c1-c1nc2c3cccnc3c3ncccc3c2[nH]1 | 30.7
* C=CCn1c(=O)c2cnc(Nc3ccc(N4CCN(C)CC4)cc3)nc2n1-c1cccc(C(C)(C)O)n1 + Cc1cnc(CNC(=O)c2c(=O)c3ccc(N4CCCN(C)CC4)nc3n3c2sc2ccccc23)cn1 | 50.8
* CCc1c2c(nc3ccc(O)cc13)-c1cc3c(c(=O)n1C2)COC(=O)[C@]3(O)CC + Cc1[nH]c2ccc(F)cc2c1-c1nc2c3cccnc3c3ncccc3c2[nH]1 | 29.2
* CC1COCCN1c1cc(-c2ccnn2C)c2ccnc(-c3ccn[nH]3)c2n1 (centres undefined) + Cc1[nH]c2ccc(F)cc2c1-c1nc2c3cccnc3c3ncccc3c2[nH]1 | 36.9
* Cc1[nH]c2ccccc2c1CCNCc1ccc(/C=C/C(=O)NO)cc1 + Cc1[nH]c2ccc(F)cc2c1-c1nc2c3cccnc3c3ncccc3c2[nH]1 | 32.7
